biological target: human Nav 1.8 (Homo sapiens, UniProt Q9Y5Y9); assay: E-VIPR assay detecting and measuring Nav inhibition properties; type: cell-based; conditions: HEK cells expressing a truncated form of human Nav 1.8; compound numbers without "*" (not marked as run in the presence of human serum); read-out: measured IC50 value in the E-VIPR Assay
Sequence (Q9Y5Y9 126-399 limits assumed): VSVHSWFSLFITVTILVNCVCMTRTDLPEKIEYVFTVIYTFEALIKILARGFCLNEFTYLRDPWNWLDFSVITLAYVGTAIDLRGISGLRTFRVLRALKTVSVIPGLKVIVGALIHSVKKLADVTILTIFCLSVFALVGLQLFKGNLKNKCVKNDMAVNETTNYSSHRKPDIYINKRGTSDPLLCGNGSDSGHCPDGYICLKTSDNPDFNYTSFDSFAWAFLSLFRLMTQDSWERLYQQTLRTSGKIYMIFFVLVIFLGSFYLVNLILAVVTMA
Sequence (Q9Y5Y9 660-890 limits assumed): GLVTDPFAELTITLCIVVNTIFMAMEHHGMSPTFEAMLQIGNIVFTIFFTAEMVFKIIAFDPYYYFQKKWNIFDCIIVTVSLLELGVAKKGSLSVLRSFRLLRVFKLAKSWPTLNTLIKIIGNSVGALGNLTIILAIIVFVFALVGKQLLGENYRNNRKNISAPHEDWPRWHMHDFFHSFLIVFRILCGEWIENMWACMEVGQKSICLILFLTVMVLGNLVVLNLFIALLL
Sequence (Q9Y5Y9 1148-1722 limits assumed): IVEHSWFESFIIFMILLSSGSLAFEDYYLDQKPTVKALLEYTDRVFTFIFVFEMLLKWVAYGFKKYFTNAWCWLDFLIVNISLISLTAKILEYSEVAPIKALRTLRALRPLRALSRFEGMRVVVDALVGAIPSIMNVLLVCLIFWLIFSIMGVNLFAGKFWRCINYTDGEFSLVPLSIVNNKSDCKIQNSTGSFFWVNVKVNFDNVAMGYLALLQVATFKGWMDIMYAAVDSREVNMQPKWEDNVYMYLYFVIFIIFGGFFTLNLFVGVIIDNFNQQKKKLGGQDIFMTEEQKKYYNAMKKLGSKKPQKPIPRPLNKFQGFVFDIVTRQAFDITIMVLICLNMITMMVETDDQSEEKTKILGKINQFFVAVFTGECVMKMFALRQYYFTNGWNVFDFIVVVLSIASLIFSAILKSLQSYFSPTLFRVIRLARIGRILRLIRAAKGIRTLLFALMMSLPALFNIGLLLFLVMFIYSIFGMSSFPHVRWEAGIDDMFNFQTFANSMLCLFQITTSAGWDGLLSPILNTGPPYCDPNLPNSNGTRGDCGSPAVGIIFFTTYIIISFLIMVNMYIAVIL
Endpoint name: IC50

Here's what some known entries look like.
COCc1c(F)ccc([C@H]2[C@H](C(=O)Nc3ccnc(C(N)=O)c3)O[C@@](C)(C(F)(F)F)[C@H]2C)c1OC (single isomer, unassigned) [Compound 140]; < 10 nM
COc1c([C@H]2[C@H](C(=O)Nc3ccnc(C(=O)N4C[C@H]5CC[C@@H](C4)N(C)C5)c3)O[C@@](C)(C(F)(F)F)[C@H]2C)ccc(F)c1F [Compound 283]; < 10 nM
COCc1c([C@@H]2[C@@H](C(=O)Nc3ccnc(C(N)=O)c3)O[C@](C)(C(F)(F)F)[C@@H]2C)ccc(F)c1F (single isomer, unassigned) [Compound 146]; ≥ 1000 nM
COc1c([C@@H]2[C@@H](C(=O)Nc3ccnc(C(N)=O)c3)O[C@@](C)(C(F)(F)F)[C@H]2C)ccc(OCC2CC2)c1F (single isomer, unassigned) [Compound 143]; 100 to 1000 nM
C[C@H]1[C@@H](c2ccc(F)c(F)c2OCCN2CCCOCC2)[C@H](C(=O)Nc2ccnc(C(N)=O)c2)O[C@@]1(C)C(F)(F)F [Compound 108]; 10 to 100 nM
COc1c([C@H]2[C@H](C(=O)Nc3ccnc(C(=O)O)c3)O[C@@](C)(C(F)(F)F)[C@H]2C)ccc(F)c1F [Compound 214]; 10 to 100 nM
COc1c([C@H]2[C@H](C(=O)Nc3ccnc(C(=O)N4C[C@@H](F)[C@H](N(C)C)C4)c3)O[C@@](C)(C(F)(F)F)[C@H]2C)ccc(F)c1F [Compound 299]; 10 to 100 nM
C[C@H]1[C@@H](c2ccc(F)c(F)c2OCC(CO)C(F)(F)F)[C@H](C(=O)Nc2ccnc(C(N)=O)c2)O[C@@]1(C)C(F)(F)F (stereo partly drawn) [Compound 169]; < 10 nM
C[C@H]1[C@@H](c2ccc(F)c(F)c2OC2CC3(CC(O)C3)C2)[C@H](C(=O)Nc2ccnc(C(N)=O)c2)O[C@@]1(C)C(F)(F)F (stereo partly drawn) [Compound 204]; 100 to 1000 nM
COc1c([C@H]2[C@H](C(=O)Nc3ccnc(C(=O)N4C5CC4CN(C)C5)c3)O[C@@](C)(C(F)(F)F)[C@H]2C)ccc(F)c1F [Compound 276]; 10 to 100 nM

Problem: // returns reported IC50 for input COCC(COc1c([C@H]2[C@H](C(=O)Nc3ccnc(C(N)=O)c3)O[C@@](C)(C(F)(F)F)[C@H]2C)ccc(F)c1F)OC (stereo partly drawn) [Compound 78]
Solution: < 10 nM

Problem: // returns reported IC50 for input COc1c([C@H]2[C@H](C(=O)Nc3nccc(C(=O)N4CCNCC4)n3)O[C@@](C)(C(F)(F)F)[C@H]2C)ccc(F)c1F [Compound 20]
Solution: 10 to 100 nM

###

Reported pIC50 values for a set of compounds
molecular target: human Nav 1.8 (Homo sapiens); assay: E-VIPR assay detecting and measuring Nav inhibition properties; assay type: cell-based; conditions: HEK cells expressing a truncated form of human Nav 1.8; compound numbers without "*" (not marked as run in the presence of human serum); read-out: measured IC50 value in the E-VIPR Assay
pIC50: −log10 of the molar value.

Here's what some known entries look like.
C[C@H]1[C@@H](c2ccc(F)c(F)c2OCCN2C3CCC2COC3)[C@H](C(=O)Nc2ccnc(C(N)=O)c2)O[C@@]1(C)C(F)(F)F [Compound 113]; 7.00 to 8.00
C[C@H]1[C@@H](c2ccc(F)c(F)c2OC2CC(F)(F)C2)[C@H](C(=O)Nc2ccnc(C(N)=O)c2)O[C@@]1(C)C(F)(F)F [Compound 173]; > 8.00
COCC1(C)CC(c2ccc(F)c(F)c2OC)C(C(=O)Nc2ccnc(C(N)=O)c2)O1 (single isomer, unassigned) [Compound 29]; ≤ 6.00
C[C@H]1[C@@H](c2ccc(F)c(F)c2OCCN[C@H]2CCOC2)[C@H](C(=O)Nc2ccnc(C(N)=O)c2)O[C@@]1(C)C(F)(F)F [Compound 117]; 7.00 to 8.00
COc1c([C@H]2[C@H](C(=O)Nc3ccnc(C(=O)N4CCN(C)[C@@H]5C[C@@H]54)c3)O[C@@](C)(C(F)(F)F)[C@H]2C)ccc(F)c1F (single isomer, unassigned) [Compound 295]; > 8.00

Problem: // returns reported pIC50 for input CC(C)NCCOc1c([C@H]2[C@H](C(=O)Nc3ccnc(C(N)=O)c3)O[C@@](C)(C(F)(F)F)[C@H]2C)ccc(F)c1F [Compound 115]
Solution: 6.00 to 7.00

Problem: // returns reported pIC50 for input COc1c([C@H]2[C@H](C(=O)Nc3ccnc(C(=O)NCCO)c3)O[C@@](C)(C(F)(F)F)[C@H]2C)ccc(F)c1F [Compound 221]
Solution: > 8.00

Problem: // returns reported pIC50 for input COc1c([C@H]2[C@H](C(=O)Nc3ccnc(C(N)=O)c3)O[C@@](C)(C(F)(F)F)[C@H]2C)cc(O)c(F)c1F [Compound 178]
Solution: > 8.00

Problem: // returns reported pIC50 for input COc1c([C@H]2[C@H](C(=O)Nc3ccnc(C(=O)N4CCN(C)[C@H]5C[C@H]54)c3)O[C@@](C)(C(F)(F)F)[C@H]2C)ccc(F)c1F (single isomer, unassigned) [Compound 294]
Solution: > 8.00

###

Target: human Nav 1.8 (Homo sapiens, UniProt Q9Y5Y9)
Assay: E-VIPR assay detecting and measuring Nav inhibition properties
Type: cell-based
Conditions: HEK cells expressing a truncated form of human Nav 1.8; compound numbers without "*" (not marked as run in the presence of human serum); read-out: measured IC50 value in the E-VIPR Assay
Description: E-VIPR Assay Detecting and Measuring Nav Inhibition Properties Sodium ion channels are voltage-dependent proteins that can be activated by inducing membrane voltage changes by applying electric fields. […]
Endpoint name: IC50

C[C@H]1[C@@H](c2ccc(F)c(F)c2OCCc2nccn2C)[C@H](C(=O)Nc2ccnc(C(N)=O)c2)O[C@@]1(C)C(F)(F)F; 10 to 100 nM
COc1c([C@H]2[C@H](C(=O)Nc3ccnc(C(N)=O)c3)O[C@@](C)(C(F)(F)F)[C@H]2C)ccc(O)c1F; 10 to 100 nM
CC=C(CO)COc1c([C@H]2[C@H](C(=O)Nc3ccnc(C(N)=O)c3)O[C@@](C)(C(F)(F)F)[C@H]2C)ccc(F)c1F (single isomer, unassigned); < 10 nM
C[C@H]1[C@@H](c2ccc(C(F)F)nc2OCCO)[C@H](C(=O)Nc2ccnc(C(N)=O)c2)O[C@@]1(C)C(F)(F)F; 100 to 1000 nM
COc1c([C@H]2[C@H](C(=O)Nc3ccnc(C(=O)N4C[C@H](OC)[C@H](N(C)C)C4)c3)O[C@@](C)(C(F)(F)F)[C@H]2C)ccc(F)c1F; < 10 nM

With those in mind, consider the next compound.
Problem: Short answer please: IC50, human Nav 1.8 (Homo sapiens, UniProt Q9Y5Y9), entry CNC(=O)c1cc(NC(=O)[C@@H]2O[C@@](C)(C(F)(F)F)[C@@H](C)[C@H]2c2ccc(F)c(F)c2OCCO)cc[n+]1[O-]
Solution: 10 to 100 nM

###

target: human Nav 1.8 (Homo sapiens); assay: E-VIPR assay detecting and measuring Nav inhibition properties; format: cell-based; details: HEK cells expressing a truncated form of human Nav 1.8; compound numbers without "*" (not marked as run in the presence of human serum); read-out: measured IC50 value in the E-VIPR Assay
pIC50: −log10 of the molar value.
Endpoint name: pIC50

Here's what some known entries look like.
COc1c([C@H]2[C@H](C(=O)Nc3ccnc(C(=O)N4CCO[C@H]5CN(C)C[C@H]54)c3)O[C@@](C)(C(F)(F)F)[C@H]2C)ccc(F)c1F [Compound 282]; > 8.00
C[C@H]1[C@@H](c2ccc(F)c(F)c2OCc2cnn(C)c2)[C@H](C(=O)Nc2ccnc(C(N)=O)c2)O[C@@]1(C)C(F)(F)F [Compound 73]; > 8.00
C[C@H]1[C@@H](c2ccc(F)c(F)c2OCCc2cncn2C)[C@H](C(=O)Nc2ccnc(C(N)=O)c2)O[C@@]1(C)C(F)(F)F [Compound 86]; > 8.00
COc1c([C@H]2[C@H](C(=O)Nc3ccnc(C(=O)NC4CN(C)C4)c3)O[C@@](C)(C(F)(F)F)[C@H]2C)ccc(F)c1F [Compound 275]; 7.00 to 8.00
COCCOc1c([C@@H]2[C@@H](C(=O)Nc3ccnc(C(N)=O)n3)O[C@](C)(C(F)(F)F)[C@@H]2C)ccc(F)c1C (single isomer, unassigned) [Compound 4]; ≤ 6.00

With those in mind, consider the next compound.
Problem: // returns reported pIC50 for input C[C@H](Oc1c([C@H]2[C@H](C(=O)Nc3ccnc(C(N)=O)c3)O[C@@](C)(C(F)(F)F)[C@H]2C)ccc(F)c1F)C1COC1 [Compound 158]
Solution: > 8.00
